Recorded values, source patent US11299501B2.

- system name: UniProt:Q9NR97
- Sequence (Q9NR97 27-1041): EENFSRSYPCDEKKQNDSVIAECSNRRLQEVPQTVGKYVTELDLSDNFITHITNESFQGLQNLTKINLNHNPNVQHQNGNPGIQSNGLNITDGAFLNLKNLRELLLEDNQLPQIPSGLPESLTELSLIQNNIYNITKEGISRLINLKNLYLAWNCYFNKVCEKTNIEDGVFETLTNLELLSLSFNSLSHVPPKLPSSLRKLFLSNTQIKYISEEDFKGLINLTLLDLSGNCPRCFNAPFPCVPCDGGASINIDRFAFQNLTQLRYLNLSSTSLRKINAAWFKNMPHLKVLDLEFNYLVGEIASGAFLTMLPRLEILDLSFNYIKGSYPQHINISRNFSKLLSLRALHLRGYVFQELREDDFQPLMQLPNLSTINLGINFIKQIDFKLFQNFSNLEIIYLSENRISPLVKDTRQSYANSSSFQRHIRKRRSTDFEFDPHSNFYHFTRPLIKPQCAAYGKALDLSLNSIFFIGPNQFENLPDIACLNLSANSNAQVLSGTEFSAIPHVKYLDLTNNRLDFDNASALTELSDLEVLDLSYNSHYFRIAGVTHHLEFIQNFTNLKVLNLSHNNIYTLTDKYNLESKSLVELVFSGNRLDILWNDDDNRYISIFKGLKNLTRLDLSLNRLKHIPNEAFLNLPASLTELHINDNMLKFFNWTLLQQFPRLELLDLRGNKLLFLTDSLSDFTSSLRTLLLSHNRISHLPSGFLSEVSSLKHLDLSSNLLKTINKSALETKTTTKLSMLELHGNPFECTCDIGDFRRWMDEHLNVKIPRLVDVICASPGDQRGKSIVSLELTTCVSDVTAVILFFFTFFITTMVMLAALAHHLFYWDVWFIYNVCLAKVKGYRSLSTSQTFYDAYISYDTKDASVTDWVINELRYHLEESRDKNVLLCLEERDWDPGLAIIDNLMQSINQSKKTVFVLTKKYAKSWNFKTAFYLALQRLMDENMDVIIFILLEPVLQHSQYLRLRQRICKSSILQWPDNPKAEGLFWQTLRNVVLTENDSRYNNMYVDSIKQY
- measurement protocol: TLR8 inhibition reporter assay (HEK-Blue SEAP)
- test conditions: cells overexpressing human TLR8, SEAP reporter, stimulated with R848 15.9 μM, 22 hour incubation
Please respond with reported IC50 for every item in the list.

Ask | Give IC50 (UniProt:Q9NR97) of the following compound: CCc1c(-c2ccnc3[nH]ncc23)[nH]c2cnc(C3CCN(C4CCN(C(C)C)CC4)CC3)nc12
Reply | 0.1 to 1 µM

Ask | Give IC50 (UniProt:Q9NR97) of the following compound: CCc1c(-c2ccc(OC)c(OC)c2)[nH]c2cnc(C(=O)NC3CCN(C(C)C)CC3)nc12
Reply | 1 to 50 µM

Ask | Give IC50 (UniProt:Q9NR97) of the following compound: CNC(=O)CN1CCC(c2ncc3[nH]c(-c4cn5ncnc5c(C)c4C)c(C(C)C)c3n2)CC1
Reply | < 0.1 µM

I need IC50 for every entry listed below, if you could help.
1. CCc1c(-c2ccc(OC)c(OC)c2)[nH]c2cnc(-c3nnc([C@@H]4CCNC4)o3)nc12
2. Cc1cc(-c2[nH]c3cnc(C4CCN(C5COC5)CC4)nc3c2C(C)C)cn2ncnc12
3. CCc1c(-c2ccc(OC)c(OC)c2)[nH]c2nnc(C3CCNCC3)cc12
4. COc1cc(-c2[nH]c3cnc(C4CCN(C(=O)CN(C)C)CC4)nc3c2C(C)C)cn2ncnc12

Reply |
["1 to 50 µM", "< 0.1 µM", "1 to 50 µM", "< 0.1 µM"]

Ask | Give IC50 (UniProt:Q9NR97) of the following compound: Cc1cc(-c2[nH]c3cnc(C4CCN(C)CC4)nc3c2C(C)C)cn(C)c1=O
Reply | < 0.1 µM
